Assay: Relaxivity in HEPES buffer in the absence of HSA
Assay type: physicochemical
Settings: 1.41T, 50 mM HEPES buffer pH 7.4, 37 °C
# label = Condition met if r1^free >= 6 mM⁻¹ s⁻¹ else Condition not met

>  <COMPOUND>
NC(Cc1cc(I)c(O)c(I)c1)C(=O)NC(CN1CCN(CC(=O)O)CCN(CC(=O)O)CCN(CC(=O)O)CC1)C(=O)O (centres unmarked) [Gd(4)]

>  <DISCRETE_LABEL>
Condition not met

$$$$
>  <COMPOUND>
C[C@H](NC(=O)C(N)CN1CCN(CC(=O)O)CCN(CC(=O)O)CCN(CC(=O)O)CC1)c1ccccc1 (some centres unmarked) [Gd(2)]

>  <DISCRETE_LABEL>
Condition not met

$$$$
>  <COMPOUND>
COC(=O)CNC(=O)C(CN1CCN(CC(=O)O)CCN(CC(=O)O)CCN(CC(=O)O)CC1)NC(=O)C(N)Cc1cc(I)c(O)c(I)c1 (centres unmarked) [Gd(5)]

>  <DISCRETE_LABEL>
Condition met

$$$$
>  <COMPOUND>
C[C@H](NC(=O)C(CN1CCN(CC(=O)O)CCN(CC(=O)O)CCN(CC(=O)O)CC1)NC(=O)C(N)Cc1cc(I)c(O)c(I)c1)c1ccccc1 (single isomer, unassigned) [Gd(6a)]

>  <DISCRETE_LABEL>
Condition met

$$$$
